Target: CFTR-mediated chloride transport (Homo sapiens, UniProt P13569)
Sequence (P13569 whole entry, looked up): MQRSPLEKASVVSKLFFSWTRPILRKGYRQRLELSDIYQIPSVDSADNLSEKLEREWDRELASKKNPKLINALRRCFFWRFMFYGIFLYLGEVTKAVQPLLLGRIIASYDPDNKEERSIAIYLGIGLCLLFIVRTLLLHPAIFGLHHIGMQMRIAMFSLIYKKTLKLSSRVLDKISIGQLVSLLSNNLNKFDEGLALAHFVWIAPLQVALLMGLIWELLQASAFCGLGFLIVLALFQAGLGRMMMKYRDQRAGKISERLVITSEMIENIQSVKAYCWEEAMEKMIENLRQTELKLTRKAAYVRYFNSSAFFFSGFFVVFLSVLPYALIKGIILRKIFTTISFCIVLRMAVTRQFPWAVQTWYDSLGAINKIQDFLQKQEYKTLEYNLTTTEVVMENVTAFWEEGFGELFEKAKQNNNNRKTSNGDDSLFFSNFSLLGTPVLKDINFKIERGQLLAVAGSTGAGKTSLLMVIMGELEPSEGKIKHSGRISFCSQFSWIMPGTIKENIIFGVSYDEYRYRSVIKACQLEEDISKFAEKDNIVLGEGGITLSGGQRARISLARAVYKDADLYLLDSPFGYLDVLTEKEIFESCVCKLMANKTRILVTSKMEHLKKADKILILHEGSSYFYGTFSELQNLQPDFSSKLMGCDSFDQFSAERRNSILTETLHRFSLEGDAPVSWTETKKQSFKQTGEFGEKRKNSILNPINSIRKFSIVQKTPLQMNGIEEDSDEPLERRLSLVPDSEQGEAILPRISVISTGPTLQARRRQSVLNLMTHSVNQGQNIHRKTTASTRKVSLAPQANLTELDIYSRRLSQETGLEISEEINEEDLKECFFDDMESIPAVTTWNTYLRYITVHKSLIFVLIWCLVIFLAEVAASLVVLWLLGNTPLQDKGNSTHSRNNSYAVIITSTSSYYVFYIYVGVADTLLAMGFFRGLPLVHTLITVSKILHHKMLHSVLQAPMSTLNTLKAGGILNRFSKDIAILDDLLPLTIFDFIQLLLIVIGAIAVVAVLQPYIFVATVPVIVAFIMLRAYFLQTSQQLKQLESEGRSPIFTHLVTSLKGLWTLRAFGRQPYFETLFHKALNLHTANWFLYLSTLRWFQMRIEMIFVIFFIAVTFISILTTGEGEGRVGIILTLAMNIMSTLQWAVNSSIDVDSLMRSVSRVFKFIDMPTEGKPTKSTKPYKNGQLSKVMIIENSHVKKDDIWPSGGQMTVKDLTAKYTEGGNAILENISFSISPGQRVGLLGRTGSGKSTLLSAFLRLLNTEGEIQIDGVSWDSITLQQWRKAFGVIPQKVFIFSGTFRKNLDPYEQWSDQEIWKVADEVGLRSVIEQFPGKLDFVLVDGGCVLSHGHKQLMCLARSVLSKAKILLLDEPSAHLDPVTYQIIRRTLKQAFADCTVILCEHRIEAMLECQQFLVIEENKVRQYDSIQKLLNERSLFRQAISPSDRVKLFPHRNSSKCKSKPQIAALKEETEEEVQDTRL
Details: enteroid cells incubated with test compound 18-24 hours; acute 10 μM forskolin and 300 nM Compound III
EC50: recorded values
Measurement Name: EC50

CC1(C)CC2CCCNc3cccc(n3)S(=N)(=O)NC(=O)c3ccc(-n4ccc(OCCC5(C(F)(F)F)CC5)n4)nc3N1C2 (centres unmarked) [Compound 263] ... < 1 µM
CC1(C)C[C@H]2CCCCn3cc(cn3)S(=O)(=O)NC(=O)c3ccc(-n4ccc(OCCC5(C(F)(F)F)CC5)n4)nc3N1C2 (single isomer, unassigned) [Compound 134] ... < 1 µM
CC1(C)CC2CN1c1nc(-n3ccc(OCCCC4(C(F)(F)F)CC4)n3)ccc1C(=O)NS(=O)(=O)c1cccc(n1)NCCO2 (centres unmarked) [Compound 157] ... < 1 µM
CC(C)(C)CCC[C@H]1CCN(c2ccc3c(n2)N2C[C@@H](CCCNc4cccc(n4)S(=O)(=O)NC3=O)CC2(C)C)C1=O (single isomer, unassigned) [Compound 146] ... < 1 µM
CC1(C)C[C@H]2CCCNc3cccc(n3)S(=N)(=O)NC(=O)c3ccc(-n4ccc(OCCC5(C(F)(F)F)CC5)n4)nc3N1C2 (single isomer, unassigned) [Compound 272] ... > 3 µM
CC1(C)C[C@H]2C[C@@H](F)CNc3cccc(n3)S(=O)(=O)NC(=O)c3ccc(-n4ccc(OCCC5C6(CC6)C56CC6)n4)nc3N1C2 (single isomer, unassigned) [Compound 306] ... < 1 µM
CC1(C)CC2CCCNc3cccc(n3)S(=O)(=O)NC(=O)c3ccc(-n4ccc(OCCC5(C(F)(F)F)CC5)n4)nc3N1C2 (racemic) [Compound 12] ... < 1 µM
CC1(C)C[C@H]2CCCCn3ccc(n3)S(=O)(=O)NC(=O)c3ccc(-n4ccc(OCCC5(C(F)(F)F)CC5)n4)nc3N1C2 (single isomer, unassigned) [Compound 44] ... > 3 µM
CC1(C)CCC2CCCNc3cccc(n3)S(=O)(=O)NC(=O)c3ccc(-n4ccc(OCCC5(C(F)(F)F)CC5)n4)nc3N21 (centres unmarked) [Compound 16] ... < 1 µM
CC1(C)C[C@@H]2CCCNc3cccc(n3)S(=O)(=O)NC(=O)c3ccc(N4CCN(C56CC7CC(CC(C7)C5)C6)C4=O)nc3N1C2 [Compound 230] ... < 1 µM
CC1(C)C[C@@H]2CCCNc3cccc(n3)S(=O)(=O)NC(=O)c3ccc(-n4ccc(OCC(O)CC5(C(F)(F)F)CC5)n4)nc3N1C2 (some centres unmarked) [Compound 259] ... < 1 µM

Source listed as patent US11866450B2.
